tested-on: Metallo-beta-lactamase type 2 (Bacteria, UniProt C7C422)
Sequence (C7C422 whole entry): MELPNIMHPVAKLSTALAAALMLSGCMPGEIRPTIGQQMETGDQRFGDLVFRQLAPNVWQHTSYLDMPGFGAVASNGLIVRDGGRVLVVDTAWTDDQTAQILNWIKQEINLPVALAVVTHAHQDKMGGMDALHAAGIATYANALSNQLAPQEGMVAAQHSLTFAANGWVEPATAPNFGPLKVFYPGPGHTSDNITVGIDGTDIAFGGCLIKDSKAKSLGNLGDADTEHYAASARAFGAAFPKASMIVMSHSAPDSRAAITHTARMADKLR
test-protocol: Binding affinity to NDM-1 (unknown origin) assessed as inhibition constant
property-name: Ki (µM)
The reply should be a number in µM, with the unit left off.

The following compounds have reported results that may help.
>  <compound>
CCOC(=O)[C@]1(CS)N[C@H](C(=O)O)CS1

>  <endpoint-unit>
µM

>  <Ki>
0.44

$$$$
>  <compound>
SCC1SCC2Nc3ccccc3N21 (stereo not drawn)

>  <endpoint-unit>
µM

>  <Ki>
77

$$$$

Turning to the following compound.
q: Request the reported Ki associated with CCOC(=O)[C@]1(CS)N[C@H](C(=O)O)C(C)(C)S1
a: 8
